Entries and their measured TGI follow.
Tested on: DU-145 prostate
Assay: NCI tumour cell line growth inhibition, 48 h

Example results:
Smiles Structure: C=CCOc1ccc2c(c1)CC[C@@H]1[C@@H]2CC[C@]2(C)C(=O)/C(=N/O)C[C@@H]12
TGI: 15.6 µM
--
Smiles Structure: O=C1OCC(CN2CCC(n3c(=O)[nH]c4ccccc43)CC2)=C1c1ccccc1
TGI: 71.7 µM
--
Smiles Structure: COc1ccc2c(C(=O)NCCCCCC(=O)O)cc3cc4c(cc3c2c1)OCO4
TGI: > 100 µM
--
Smiles Structure: CCN(CC)CCCNc1c2cc(OC)ccc2nc2cccc([N+](=O)[O-])c12
TGI: 0.426 µM

Turning now to a further molecule:
Prompt line: // query TGI value for entry O=[N+]([O-])C(=C(\Cl)NCCO)/C(Cl)=C(/Cl)Br
Response line: 20.6 µM

---

Entries and their measured TGI follow.
Tested on: K-562 leukemia
Experiment: NCI tumour cell line growth inhibition, 48 h

Compound: CCN(CC)C(=O)CCNC(C)Cc1c[nH]c2ccccc12 (centres undefined)
Measure Name: TGI
Observed Value: > 100 µM
//
Compound: O=c1n(CC2CO2)c2ccccc2n1CC1CS1 (centres undefined)
Measure Name: TGI
Observed Value: > 100 µM
//
Compound: COc1cccc(-c2nn(C)c3sc(C(=O)NCCN4CCN(c5ccccc5F)CC4)cc23)c1
Measure Name: TGI
Observed Value: > 100 µM
//
Compound: N=C(N)c1ccc(-c2ccc(-c3ccccc3)o2)o1
Measure Name: TGI
Observed Value: 3.18 µM
//
Compound: FC1(F)SC2CCCCCCCCCCC2C1(F)F (centres undefined)
Measure Name: TGI
Observed Value: 35.3 µM

Turning now to a further compound:
Prompt line: // query TGI value for entry Nc1nc(N)c(N=Nc2ccc([As](=O)(O)O)c(O)c2)c(N)n1
Response line: > 100 µM

---

System: DU-145 prostate
Experiment: NCI tumour cell line growth inhibition, 48 h
Entries and their measured TGI follow.

Compound: COc1ccc(/C=C/c2cnnc3ccccc23)cc1OC
Measure Name: TGI
Observed Value: > 10 µM
//
Compound: NCCCCNCCCNC(=O)c1csc(-c2nc(CCN)sc2Cl)n1
Measure Name: TGI
Observed Value: > 100 µM
//
Compound: O=[N+]([O-])c1ccc(N/N=C\c2ccc(O)cc2O)nc1
Measure Name: TGI
Observed Value: > 100 µM
//
Compound: CCOC(=O)C(/C=N/C(N)=S)=C(/O)c1ccccc1
Measure Name: TGI
Observed Value: > 100 µM
//
Compound: O=C1/C=C/[C@@H](O)[C@@H]2C[C@@H](O)C[C@H]2/C=C/CCCCO1
Measure Name: TGI
Observed Value: > 100 µM

Turning now to a further compound:
Prompt line: // query TGI value for entry O=c1c(-c2nc3ccccc3[nH]2)cc2ccccc2n1Cc1cn(Cc2ccc(F)cc2)nn1
Response line: 1.05 µM

---

Test system: MDA-N
Assay: NCI tumour cell line growth inhibition, 48 h
Measure Name: TGI

Molecule: COc1cc(CNC(=O)CCCCCCCCCCSC#N)ccc1O
Measure Name: TGI
Observed Value: 31.3 µM

Turning now to a further molecule:
Prompt line: // query TGI value for entry CSc1c(C#N)c(=O)n(N)c2n[nH]c(C)c12
Response line: > 100 µM

---

Test system: SF-268 CNS
Assay: NCI tumour cell line growth inhibition, 48 h; in the data active means GI50 below about 0.43 µM; inactive means the rest
Choose the fitting class; nothing outside 1 for active, 0 for inactive is accepted.

Solved entries (count: 5):
Compound: CCCCCCCCCCCC(=O)[O][Sn]([CH2]CCC)([CH2]CCC)[CH2]CCC
Classification: 1

Compound: COc1ccc2nc3c(cc2c1)C(=O)CC(C(F)(F)F)C3 (stereo not given)
Classification: 0

Compound: CC/C(=C(/c1ccc(Cl)cc1)c1ccc(OCCCN(C)C)cc1)c1ccc(OC)cc1
Classification: 0

Compound: Nc1nc(-c2ccccc2Cl)cc(-c2ccc(Cl)cc2Cl)n1
Classification: 0

Compound: Nc1c(C(=O)Nc2cccc3ccccc23)sc2nc3c(cc12)CCCCCC3
Classification: 0

Prompt line: What was the test verdict on COc1ccc(S(=O)(=O)Nc2c(/C=C\c3cc(OC)c(OC)c(OC)c3)ccc(OC)c2O)cc1OC ?
Response line: 0

Prompt line: What was the test verdict on O=c1c(-c2nc3ccccc3[nH]2)cc2ccccc2n1Cc1cn(Cc2ccc(F)cc2)nn1 ?
Response line: 1

---

Entries and their measured TGI follow.
System: HCC-2998 colon
Experiment: NCI tumour cell line growth inhibition, 48 h

Compound: O=c1c(Br)ccc(Br)cc1Br
Measure Name: TGI
Observed Value: 8.6 µM

Turning now to a further compound:
Prompt line: Any idea what TGI came out for COc1cccc(/C=N/[N-]C(N)=O)c1[O-].[Cu+2].c1ccncc1 on HCC-2998 colon?
Response line: > 100 µM

---

Test system: MCF7 breast
Assay: NCI tumour cell line growth inhibition, 48 h
Measure Name: TGI

Example results:
Molecule: O=C1CSC2(CC(/C=C/c3ccccc3[N+](=O)[O-])=NN2c2cccc(S(=O)(=O)O)c2)N1c1nc2ccccc2s1 (stereo unspecified)
System Under Test: MCF7 breast
TGI: 26.4 µM
--
Molecule: O=[N+]([O-])c1cc(C2ON=C(c3ccccc3)N2C23CC4CC(CC(C4)C2)C3)ccc1Cl (stereo unspecified)
System Under Test: MCF7 breast
TGI: > 100 µM
--
Molecule: CC(NC(=O)C1(N)CCCC1)C(=O)O (stereo unspecified)
System Under Test: MCF7 breast
TGI: > 100 µM
--
Molecule: COc1ccc(C2=Nn3c(C)nnc3S/C2=C\c2ccc(-c3ccc([N+](=O)[O-])cc3)o2)cc1
System Under Test: MCF7 breast
TGI: 88.7 µM
--
Molecule: C/C(=N\Nc1nc2ccccc2[nH]1)c1ccc2ccccc2n1
System Under Test: MCF7 breast
TGI: 13.8 µM
--
Molecule: [B]C(=O)NC(CC(C)C)C(=O)NC1c2ccsc2C(=O)C1O (stereo unspecified) (tested in a mixture with another compound)
System Under Test: MCF7 breast
TGI: > 100 µM
--
Molecule: CC(=O)Nc1ccc2cc3c(nc2n1)c1cccnc1n3S(=O)(=O)c1ccccc1
System Under Test: MCF7 breast
TGI: > 100 µM
--
Molecule: C=C(C)[C@H]1C=C[C@@H](OC(C)=O)[C@@]2(COC(C)=O)[C@H](OC(=O)CCC)[C@H]3[C@@H](OC(C)=O)[C@@H](C)C[C@]3(O)C(=O)[C@@](C)(OC(C)=O)[C@H]12
System Under Test: MCF7 breast
TGI: > 100 µM
--
Molecule: COc1cc(/C=C2\CCCC3=C2N=C2SC=NN2C3c2cc(OC)c(OC)c(OC)c2)cc(OC)c1OC (stereo unspecified)
System Under Test: MCF7 breast
TGI: > 100 µM
--
Molecule: COc1ccc2nc3c(cc2c1)C(=O)CC(C(F)(F)F)C3 (stereo unspecified)
System Under Test: MCF7 breast
TGI: > 100 µM

Prompt line: // query TGI value for entry CCCCCC(=O)OC[n+]1ccc(-c2c(COC(=O)NC(C)C)c(COC(=O)NC(C)C)c3n2CCC3)cc1
Response line: > 100 µM

---

Tested on: OVCAR-8 ovarian
Assay: NCI tumour cell line growth inhibition, 48 h
Entries and their measured TGI follow.

Example results:
Compound: O=C(c1ccccc1)C(c1ccccc1)C1(O)C(=O)Nc2ccc(Br)cc21 (centres undefined)
Observed Value: > 100 µM
//
Compound: CCn1cc(C(=O)O)c(=O)c2cc(F)c(N3CCNCC3)nc21
Observed Value: > 100 µM
//
Compound: Cn1cc(C2=C(c3cn(CCCN/C(N)=N\[N+](=O)[O-])c4ccccc34)C(=O)NC2=O)c2ccccc21
Observed Value: > 18.5 µM
//
Compound: CCOC(=O)C(C(=O)OCC)C(=S)NC1OC(COC(C)=O)C(OC(C)=O)C(OC(C)=O)C1OC(C)=O (centres undefined)
Observed Value: > 100 µM
//
Compound: CCN(CC)CCCNc1c2cc(OC)ccc2nc2cccc([N+](=O)[O-])c12
Observed Value: 0.264 µM

Prompt line: // query TGI value for entry COc1ccc(-n2cc(-c3ccc(F)cc3)[nH]c2=O)cc1OC
Response line: > 100 µM

Prompt line: // query TGI value for entry COc1cc2c(cc1OC)-c1c(c3ccc([N+](=O)[O-])cc3c(=O)n1CCCBr)C2=O
Response line: > 100 µM

Prompt line: // query TGI value for entry COc1cc(-c2cc(C(=O)N3CCN(C(=O)c4ccccc4NCc4cccs4)CC3)nc3cc(-c4ccccc4)nn23)cc(OC)c1OC
Response line: > 100 µM

Prompt line: // query TGI value for entry CCOC1=NC(C(F)(F)F)(C(F)(F)F)N=C(/N=C(/N)N(C)C(C(C)C)P(=O)(OC(C)C)OC(C)C)O1 (centres undefined)
Response line: > 100 µM
